# subject-of-test: MERTK (UniProt Q12866)
# Sequence (Q12866 whole entry, looked up): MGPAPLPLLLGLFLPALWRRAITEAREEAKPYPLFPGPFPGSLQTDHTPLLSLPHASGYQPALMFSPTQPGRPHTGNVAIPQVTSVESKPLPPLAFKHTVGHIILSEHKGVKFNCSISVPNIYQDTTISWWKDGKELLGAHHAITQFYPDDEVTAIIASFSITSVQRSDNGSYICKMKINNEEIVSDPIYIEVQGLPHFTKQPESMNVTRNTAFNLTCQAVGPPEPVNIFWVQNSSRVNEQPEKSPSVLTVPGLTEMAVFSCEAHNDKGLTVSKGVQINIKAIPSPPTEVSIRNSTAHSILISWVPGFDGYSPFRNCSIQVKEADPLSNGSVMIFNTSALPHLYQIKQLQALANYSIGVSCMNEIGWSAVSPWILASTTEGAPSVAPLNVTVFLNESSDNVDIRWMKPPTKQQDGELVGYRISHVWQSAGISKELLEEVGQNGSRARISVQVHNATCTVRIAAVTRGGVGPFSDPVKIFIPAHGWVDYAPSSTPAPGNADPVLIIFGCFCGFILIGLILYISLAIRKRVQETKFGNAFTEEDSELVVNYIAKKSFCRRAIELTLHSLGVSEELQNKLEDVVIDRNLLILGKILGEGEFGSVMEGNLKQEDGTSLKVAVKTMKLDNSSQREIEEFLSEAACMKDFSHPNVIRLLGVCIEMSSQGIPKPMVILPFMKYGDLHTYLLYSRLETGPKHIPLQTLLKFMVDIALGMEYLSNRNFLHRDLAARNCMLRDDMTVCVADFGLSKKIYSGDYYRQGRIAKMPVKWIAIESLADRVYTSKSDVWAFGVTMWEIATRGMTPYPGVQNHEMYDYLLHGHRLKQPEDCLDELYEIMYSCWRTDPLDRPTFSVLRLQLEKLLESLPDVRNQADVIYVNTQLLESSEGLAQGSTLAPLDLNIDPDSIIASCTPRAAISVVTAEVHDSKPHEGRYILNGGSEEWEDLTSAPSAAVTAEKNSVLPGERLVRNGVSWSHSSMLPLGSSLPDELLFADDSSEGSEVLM
# assay-explanation: phosphorylation enrichment, bacterial display (enrichment ratio); higher = better substrate or ligand; peptides without Tyr show the background;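 further: 11-residue human phosphosite peptides and single-mutation variants displayed on the E. coli surface, counted by deep sequencing, each peptide's frequency after selection divided by its frequency in the unselected input library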;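 further: frequency after pTyr selection over input frequency; kinase dosed for 20-30% of maximal phosphorylation in three min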
measure: phosphorylation enrichment
Answers are plain numbers.

[
  {
    "item-sequence": "DEGVNHFMSKG [FBXO8_Y156_Y156H]",
    "subject-of-test": "MERTK (UniProt Q12866)",
    "numeric-readout": 0.324
  },
  {
    "item-sequence": "IVRSLYEDPED [VHL_Y185_L188P]",
    "subject-of-test": "MERTK (UniProt Q12866)",
    "numeric-readout": 0.424
  },
  {
    "item-sequence": "SCRENYSFSEE [LEMD3_Y258_D260Y_YF]",
    "subject-of-test": "MERTK (UniProt Q12866)",
    "numeric-readout": 0.38
  },
  {
    "item-sequence": "VLSIDYYFPPQ [AR_Y552_P549S]",
    "subject-of-test": "MERTK (UniProt Q12866)",
    "numeric-readout": 3.5
  }
]

// each listed sequence needs a value for phosphorylation enrichment
1. GLIPAYHRVIM [NMNAT1_Y64]
2. QDRTYYERVRT [SPEN_Y633_S635R]

(A)
0.408
0.629

(Q) # return recorded phosphorylation enrichment for entry LLPNAYIFVVQ [L1CAM_Y418_A415P_YF]
(A) 0.561

Data credit: the supplement of paper PMC10065799
